The entries below come with measured IC50 values attached.
Target: HLA-A*6802 (human)
Assay: competition with 125I standard peptide for purified HLA; gel filtration
The reply should contain only the number, in nM.

binder	IC50, nM
LLWQPIPVHV (modifications not checked) [Peptide 1419.69 … (PAP.136.V10)]	60

Moving on to another binder below.
Fill in: IC50 of LVCNGVLQGV (modifications not checked) [Peptide 1418.55 … (HuK2.217.V10)] is ___
3.5
